Data origin, for the record: PubChem BioAssay (NCI)

# Tested on: RPMI-8226 leukemia
# assay remarks: NCI tumour cell line growth inhibition, 48 h
reported metric: TGI

molecule: CCN(CCCl)c1cc(CN(C)C)cc(NC(=O)C23CCC(C(=O)Nc4cc(CN(C)C)cc(N(CC)CCCl)c4)(CC2)CC3)c1
observed: > 100 µM

molecule: C#Cc1cc(Br)c(OC(=O)C(C)(C)C)c(-c2cc(C#C)cc(Br)c2OC(=O)C(C)(C)C)c1
observed: 46.4 µM

molecule: COc1cc(-c2csc(NC(=O)Nc3ccc(C(F)(F)F)cc3)n2)cc(OC)c1OC
observed: 8.69 µM

molecule: O=C(Nc1cccc(-c2ccc(Cl)c(C(F)(F)F)c2)c1)C1CCN(Cc2cccc3cccnc23)CC1
observed: 5.4 µM

molecule: CCC(=O)Nc1ccc(C)c(-c2ccc(C(=O)NCC3CC3)cc2)c1
observed: > 25 µM

molecule: O=C1c2ccccc2C(=O)C1C(c1ccc(F)cc1)C1C(=O)c2ccccc2C1=O
observed: > 100 µM

molecule: Cc1ccc(C2COc3cc(O)c(O)cc3C2)cc1 (stereo not given)
observed: 37.9 µM

molecule: CC(C)(C)OC(=O)NCCNCCNc1ccccc1
observed: > 100 µM

molecule: CCOC(=O)C#Cc1c(C(=O)OCC)nnn1Cc1ccc([N+](=O)[O-])cc1
observed: 7.37 µM

molecule: O=S1(=O)OCCOS(=O)(=O)C1Cc1cccc2ccccc12
observed: 85.3 µM

* * *

# Test system: IGROV1 ovarian
# assay remarks: NCI tumour cell line growth inhibition, 48 h; in the data active means GI50 below about 0.43 µM; inactive means the rest
Where a SMILES comes first, the peptide text is derived from it. [ ]: non-standard residue; d: D form. The star is where a group is joined. dTle = CC(C)(C)[C@@H](N)C(=O)O; 4Abz = Nc1ccc(C(=O)O)cc1; NHOH = ON*
Outcomes: 1 = active, 0 = inactive

molecule: C/C(=C\c1cc(C(F)(F)F)n(-c2ccc(N)cc2)n1)[C@@H]1C[C@@H]2O[C@]2(C)CCC[C@H](C)[C@H](O)[C@@H](C)C(=O)C(C)(C)[C@@H](O)CC(=O)O1
group label: 1
//
molecule: C=C1C(=O)O[C@H]2[C@H]1CC/C(COC(=O)C(C)c1ccc(CC(C)C)cc1)=C\CC[C@@]1(C)O[C@@H]21 (stereo partly drawn)
group label: 0
//
molecule: C[C@@H](NC(=O)[C@H](NC(=O)[C@@H]1CCCN1C(=O)CNC(=O)c1ccc(N)cc1)C(C)(C)C)C(=O)NO (H-[4Abz]GP[dTle][dA]-{NHOH})
group label: 0
//
molecule: CO/N=C(\COc1ccc2oc(-c3ccccc3)cc(=O)c2c1)c1ccc(OC)cc1
group label: 0
//
molecule: CCCN(CCC)c1ccc(/C=N/NC(=O)c2cccnc2)c(OC)c1
group label: 0
//
molecule: Cc1ccc(C(=O)/C(=C\c2ccc([N+](=O)[O-])cc2)S(=O)Cc2ccc(Cl)cc2)cc1 (stereo not drawn)
group label: 0
//
molecule: COC(=O)C12OCC34C(CC5C(C)C6=CC(=O)OC6=CC5(C)C3C(O)C1O)OC(=O)C(O)C24 (stereo not drawn)
group label: 1
//
molecule: CC(CN(C)C)Oc1ccccc1NC1=C(Cl)C(=O)C(Nc2ccccc2OC(C)CN(C)C)=C(Cl)C1=O (stereo not drawn)
group label: 0

* * *

# System: NCI-H23 lung
# assay remarks: NCI tumour cell line growth inhibition, 48 h; in the data active = GI50 below about 0.43 µM; inactive = the rest
Outcomes: 1 (yes) = active, 0 (no) = inactive

query smiles: NS(=O)(=O)c1ccc(N(/C=C/C(=O)C(F)(F)F)Cc2ccc(Cl)cc2)cc1
group label: 0 (no)
--
query smiles: CC(=O)O[C@H](C[C@H](C(C)C)N(C)C(=O)[C@@H](NC(=O)[C@H]1CCCN1C)C(C)C)c1nc(C(=O)N[C@@H](Cc2ccccc2)C[C@H](C)C(=O)O)c(C)s1
group label: 1 (yes)
--
query smiles: O=C(O)c1c(=O)cccc2ssc12
group label: 0 (no)

* * *

# Tested on: HOP-92 NSCLC
# assay remarks: NCI tumour cell line growth inhibition, 48 h
Listed below: GI50 values for each entry.

compound: CC(=O)O[C@H](C[C@H](C(C)C)N(C)C(=O)[C@@H](NC(=O)[C@H]1CCCN1C)C(C)C)c1nc(C(=O)N[C@@H](Cc2ccccc2)C[C@H](C)C(=O)O)c(C)s1
experimental system: HOP-92 NSCLC
GI50: 12400 nM
//
compound: CCCCCCCCCNC(=O)/C=C/c1ccc(O)c(O)c1
experimental system: HOP-92 NSCLC
GI50: 2520 nM
//
compound: C=C(CO)[C@@H]1CC[C@]2(COC3CCCCO3)CC[C@]3(C)[C@H](CC[C@@H]4[C@@]5(C)C=C(C=O)C(=O)C(C)(C)[C@@H]5CC[C@]43C)[C@@H]12 (stereo not given in full)
experimental system: HOP-92 NSCLC
GI50: 147 nM
//
compound: O=C(Nc1cccc(Cl)c1)c1cccc(NC2=C(Cl)C(=O)N(Cc3ccccc3)C2=O)c1
experimental system: HOP-92 NSCLC
GI50: 16100 nM
//
compound: Cc1cn2c(/C=N/N=C(N)N)c(-c3ccccn3)nc2s1
experimental system: HOP-92 NSCLC
GI50: 7350 nM
//
compound: OCCNc1nc(Nc2ccc(Cl)c(Cl)c2)nc2ccccc12
experimental system: HOP-92 NSCLC
GI50: 2050 nM
//
compound: Oc1ccc(C2c3ccccc3Oc3ccccc32)c2cccnc12
experimental system: HOP-92 NSCLC
GI50: 1860 nM
//
compound: CC1(C)NCCC[C@]2(C)[C@H]3CC[C@@H]4[C@H]5[C@H](C(=O)/C=C/c6ccccn6)CC[C@]5(CO)CC[C@@]4(C)[C@]3(C)CC[C@@H]12
experimental system: HOP-92 NSCLC
GI50: 1990 nM
//
compound: Cc1cc(N2CCOCC2)nc(N(CCCNc2ccnc3cc(Cl)ccc23)Cc2ccco2)n1
experimental system: HOP-92 NSCLC
GI50: 1560 nM
//
compound: NS(=O)(=O)CC1CC[CH-]CC1.[Cl-].[Cl-].[Cl-].[Cl-].[Cl-].[Sb+5].c1ccncc1
experimental system: HOP-92 NSCLC
GI50: > 100000 nM

* * *

# Test system: SK-OV-3 ovarian
# assay remarks: NCI tumour cell line growth inhibition, 48 h; in the data active means GI50 below about 0.43 µM; inactive means the rest
Outcomes: active, inactive

compound: O=C(Nc1cccc(Cl)c1)c1cccc(NC2=C(Cl)C(=O)N(Cc3ccccc3)C2=O)c1
experimental system: SK-OV-3 ovarian
group label: inactive
--
compound: CC(=O)O[C@H](C[C@H](C(C)C)N(C)C(=O)[C@@H](NC(=O)[C@H]1CCCN1C)C(C)C)c1nc(C(=O)N[C@@H](Cc2ccccc2)C[C@H](C)C(=O)O)c(C)s1
experimental system: SK-OV-3 ovarian
group label: active
--
compound: CC1(N)CCN(c2cnc(-c3cccc(Cl)c3Cl)c(N)n2)CC1
experimental system: SK-OV-3 ovarian
group label: inactive
--
compound: Oc1ccc(C2c3ccccc3Oc3ccccc32)c2cccnc12
experimental system: SK-OV-3 ovarian
group label: inactive
--
compound: COC(=O)C12OCC34C(CC5C(C)C6=CC(=O)OC6=CC5(C)C3C(O)C1O)OC(=O)C(O)C24 (stereo not drawn)
experimental system: SK-OV-3 ovarian
group label: active
--
compound: O=C1c2ccccc2-c2c1c1c(O)cccc1n2Cc1ccccn1
experimental system: SK-OV-3 ovarian
group label: inactive
--
compound: C/C(=C\c1cc(C(F)(F)F)n(-c2ccc(N)cc2)n1)[C@@H]1C[C@@H]2O[C@]2(C)CCC[C@H](C)[C@H](O)[C@@H](C)C(=O)C(C)(C)[C@@H](O)CC(=O)O1
experimental system: SK-OV-3 ovarian
group label: active
--
compound: CN1CCN(c2ccc(NC(=O)c3cncnc3Nc3ccc(OCc4ccccn4)c(Cl)c3)cc2)CC1
experimental system: SK-OV-3 ovarian
group label: inactive

* * *

# System: SW-620 colon
# assay remarks: NCI tumour cell line growth inhibition, 48 h; in the data active = GI50 below about 0.43 µM; inactive = the rest
Outcomes: 1 (active), 0 (inactive)

compound: CCN(CC)C(=S)SCN1C(=O)c2ccccc2S1(=O)=O
group label: 0

compound: CC([C@H]1CCC2C3CCC4C[C@@H](N)CC[C@]4(C)C3CC[C@@]21C)N(C)C (stereo partly specified)
group label: 0

compound: COC(=O)C12OCC34C(CC5C(C)C6=CC(=O)OC6=CC5(C)C3C(O)C1O)OC(=O)C(O)C24 (stereo unspecified)
group label: 1

compound: Oc1ccc(C2c3ccccc3Oc3ccccc32)c2cccnc12
group label: 0

compound: O=[N+]([O-])c1cc(C(F)(F)F)ccc1Sc1ccc(C(F)(F)F)cc1[N+](=O)[O-]
group label: 0

compound: CCC(=O)Nc1ccc(C)c(-c2ccc(C(=O)NCC3CC3)cc2)c1
group label: 0

* * *

# Test system: PC-3 prostate
# assay remarks: NCI tumour cell line growth inhibition, 48 h
reported metric: TGI

compound: c1ccc(C(=NCCC2CNc3ccccc32)c2ccccc2)cc1 (stereo not drawn)
observed: > 100 µM
--
compound: N#Cc1c(N)nc(N2CCOCC2)c(C#N)c1-c1ccccn1
observed: > 100 µM
--
compound: O=S1(=O)OCCOS(=O)(=O)C1Cc1cccc2ccccc12
observed: > 100 µM
--
compound: OC(c1ccc2c(c1)OCO2)c1ccc2c(c1)OCO2
observed: > 100 µM
--
compound: CCCCCCCCCNC(=O)/C=C/c1ccc(O)c(O)c1
observed: 36.2 µM
--
compound: CCOC(=O)c1cc(-c2ccccc2)[nH]c1N/N=C/c1ccc(Cl)cc1
observed: > 100 µM
--
compound: CC1=C(/C=C/C(C)=C/C=C/C(C)=C/C(=O)O)C(C)(C)CCC1
observed: > 100 µM
--
compound: COC(=O)C1=C(C)NC(C)=C(C(=O)OC)C1c1ccc(N=O)cc1
observed: 29.3 µM
--
compound: Cc1cc2c(C(N)=O)c(N)n(-c3c(C)ccc(O)c3C)c2nc1C
observed: > 100 µM
--
compound: C/C(=N\NC(=S)SCc1ccccc1)c1ccccn1
observed: 15.2 µM
--
compound: CCN(CC)C(=S)SCN1C(=O)c2ccccc2S1(=O)=O
observed: > 100 µM
--
compound: O=C(c1ccccc1)C1C(c2ccccc2)N1S(=O)(=O)c1ccccc1 (stereo not drawn)
observed: > 100 µM
--
compound: O=NNc1ccc(Sc2ccc(NN=O)cn2)nc1
observed: > 100 µM
--
compound: CCCN(CCC)c1ccc(/C=N/NC(=O)c2cccnc2)c(OC)c1
observed: > 100 µM
--
compound: CCOC(=O)c1cc(Br)c(-c2cc(C)no2)[nH]1
observed: > 100 µM
--
compound: O=C(/C=C/C12c3ccccc3C(c3ccccc31)C1C(=O)NC(=O)C12)c1ccc(F)cc1 (stereo not drawn)
observed: 3.38 µM
--
compound: O=C(O)[C@H](Cc1ccccc1)NCCN1CCC[C@H]1C(=O)O
observed: > 100 µM
--
compound: CC(C)(C)OC(=O)NCCNCCNc1ccccc1
observed: > 100 µM
--
compound: CN(C)c1nncc2n[nH]nc12
observed: > 100 µM
--
compound: Cc1cn2c(/C=N/N=C(N)N)c(-c3ccccn3)nc2s1
observed: 53.9 µM
--
compound: Oc1c(Br)cc(/C=C/c2cccc(/C=C/c3cc(Br)c(O)c(Br)c3)n2)cc1Br
observed: 25.1 µM
--
compound: O=C(O)CCC(N=NNc1ccc(-c2nc3ccccc3[nH]2)cc1)C(=O)O (stereo not drawn)
observed: > 100 µM
--
compound: CCOC(=O)C#Cc1c(C(=O)OCC)nnn1Cc1ccc([N+](=O)[O-])cc1
observed: 22.4 µM
